TESTED_ON: Rho-associated protein kinase 1 (Homo sapiens) (UniProt Q13464)
Sequence (Q13464 2-1354 limits assumed): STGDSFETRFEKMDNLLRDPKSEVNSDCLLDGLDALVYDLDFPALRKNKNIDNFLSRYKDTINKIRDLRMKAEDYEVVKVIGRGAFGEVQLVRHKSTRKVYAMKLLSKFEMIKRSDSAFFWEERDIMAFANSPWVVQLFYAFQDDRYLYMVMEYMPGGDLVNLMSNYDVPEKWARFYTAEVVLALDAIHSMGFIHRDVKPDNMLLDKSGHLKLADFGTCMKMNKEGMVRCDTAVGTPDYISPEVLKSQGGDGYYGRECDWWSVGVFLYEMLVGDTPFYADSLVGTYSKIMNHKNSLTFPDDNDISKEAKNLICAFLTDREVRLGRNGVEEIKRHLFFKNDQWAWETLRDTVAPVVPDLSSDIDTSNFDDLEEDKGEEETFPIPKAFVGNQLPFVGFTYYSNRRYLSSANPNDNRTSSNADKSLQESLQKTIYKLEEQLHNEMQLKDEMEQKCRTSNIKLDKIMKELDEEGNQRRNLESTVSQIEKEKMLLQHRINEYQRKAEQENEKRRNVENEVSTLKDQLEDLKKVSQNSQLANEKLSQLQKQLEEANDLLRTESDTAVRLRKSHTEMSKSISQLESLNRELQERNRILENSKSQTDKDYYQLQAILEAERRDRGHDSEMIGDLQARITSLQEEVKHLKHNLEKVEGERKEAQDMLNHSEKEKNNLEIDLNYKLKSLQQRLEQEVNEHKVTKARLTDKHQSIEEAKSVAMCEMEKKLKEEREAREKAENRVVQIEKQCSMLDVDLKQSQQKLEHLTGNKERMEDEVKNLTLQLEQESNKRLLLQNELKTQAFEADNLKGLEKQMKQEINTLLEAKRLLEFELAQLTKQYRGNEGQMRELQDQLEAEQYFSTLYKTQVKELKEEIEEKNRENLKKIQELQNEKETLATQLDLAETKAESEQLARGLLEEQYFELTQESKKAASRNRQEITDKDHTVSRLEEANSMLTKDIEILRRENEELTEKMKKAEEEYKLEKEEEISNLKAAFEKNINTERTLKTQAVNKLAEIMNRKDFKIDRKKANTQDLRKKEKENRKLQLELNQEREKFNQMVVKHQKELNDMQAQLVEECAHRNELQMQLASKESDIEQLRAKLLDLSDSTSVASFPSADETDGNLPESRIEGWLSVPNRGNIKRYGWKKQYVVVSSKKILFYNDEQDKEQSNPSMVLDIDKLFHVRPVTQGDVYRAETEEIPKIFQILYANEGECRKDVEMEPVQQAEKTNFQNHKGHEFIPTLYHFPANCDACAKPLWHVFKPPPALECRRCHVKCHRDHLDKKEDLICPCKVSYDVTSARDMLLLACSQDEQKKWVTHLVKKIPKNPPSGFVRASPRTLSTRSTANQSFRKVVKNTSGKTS
EXPERIMENTAL_PARAMETERS: at 1 µM
inhibition values for the compounds below.
Numeric only. Scale: %

# example entries with known answers
- COMPOUND: "CC1=C(C(=O)Nc2cc(Cl)c3[nH]ncc3c2)C(c2ccc(C(F)(F)F)cc2)CC(=O)N1 (centres undefined)"
  UOM: "%"
  inhibition: 84
- COMPOUND: "COc1cccc(-c2c[nH]c3c(N/N=C/c4ccncc4)ncnc23)c1"
  UOM: "%"
  inhibition: 7.68
- COMPOUND: "CNC(=O)c1cncc(/C=C/c2ccccc2Cl)c1"
  UOM: "%"
  inhibition: 1.5

Which measured inhibition value corresponds to "CC(C)COC(=O)c1ccc2c(c1)/C(=C/Nc1ccc(S(N)(=O)=O)cc1)C(=O)N2" ?
30.2

Next: "O=S(=O)(CCNCc1ccc(-c2ccc3ncnc(Nc4ccc(OCc5cccc(F)c5)c(Cl)c4)c3c2)o1)c1ccccc1"
3.67

====

TESTED_ON: ALK tyrosine kinase receptor (Homo sapiens) (UniProt Q9UM73)
Sequence (Q9UM73 19-1620 limits assumed): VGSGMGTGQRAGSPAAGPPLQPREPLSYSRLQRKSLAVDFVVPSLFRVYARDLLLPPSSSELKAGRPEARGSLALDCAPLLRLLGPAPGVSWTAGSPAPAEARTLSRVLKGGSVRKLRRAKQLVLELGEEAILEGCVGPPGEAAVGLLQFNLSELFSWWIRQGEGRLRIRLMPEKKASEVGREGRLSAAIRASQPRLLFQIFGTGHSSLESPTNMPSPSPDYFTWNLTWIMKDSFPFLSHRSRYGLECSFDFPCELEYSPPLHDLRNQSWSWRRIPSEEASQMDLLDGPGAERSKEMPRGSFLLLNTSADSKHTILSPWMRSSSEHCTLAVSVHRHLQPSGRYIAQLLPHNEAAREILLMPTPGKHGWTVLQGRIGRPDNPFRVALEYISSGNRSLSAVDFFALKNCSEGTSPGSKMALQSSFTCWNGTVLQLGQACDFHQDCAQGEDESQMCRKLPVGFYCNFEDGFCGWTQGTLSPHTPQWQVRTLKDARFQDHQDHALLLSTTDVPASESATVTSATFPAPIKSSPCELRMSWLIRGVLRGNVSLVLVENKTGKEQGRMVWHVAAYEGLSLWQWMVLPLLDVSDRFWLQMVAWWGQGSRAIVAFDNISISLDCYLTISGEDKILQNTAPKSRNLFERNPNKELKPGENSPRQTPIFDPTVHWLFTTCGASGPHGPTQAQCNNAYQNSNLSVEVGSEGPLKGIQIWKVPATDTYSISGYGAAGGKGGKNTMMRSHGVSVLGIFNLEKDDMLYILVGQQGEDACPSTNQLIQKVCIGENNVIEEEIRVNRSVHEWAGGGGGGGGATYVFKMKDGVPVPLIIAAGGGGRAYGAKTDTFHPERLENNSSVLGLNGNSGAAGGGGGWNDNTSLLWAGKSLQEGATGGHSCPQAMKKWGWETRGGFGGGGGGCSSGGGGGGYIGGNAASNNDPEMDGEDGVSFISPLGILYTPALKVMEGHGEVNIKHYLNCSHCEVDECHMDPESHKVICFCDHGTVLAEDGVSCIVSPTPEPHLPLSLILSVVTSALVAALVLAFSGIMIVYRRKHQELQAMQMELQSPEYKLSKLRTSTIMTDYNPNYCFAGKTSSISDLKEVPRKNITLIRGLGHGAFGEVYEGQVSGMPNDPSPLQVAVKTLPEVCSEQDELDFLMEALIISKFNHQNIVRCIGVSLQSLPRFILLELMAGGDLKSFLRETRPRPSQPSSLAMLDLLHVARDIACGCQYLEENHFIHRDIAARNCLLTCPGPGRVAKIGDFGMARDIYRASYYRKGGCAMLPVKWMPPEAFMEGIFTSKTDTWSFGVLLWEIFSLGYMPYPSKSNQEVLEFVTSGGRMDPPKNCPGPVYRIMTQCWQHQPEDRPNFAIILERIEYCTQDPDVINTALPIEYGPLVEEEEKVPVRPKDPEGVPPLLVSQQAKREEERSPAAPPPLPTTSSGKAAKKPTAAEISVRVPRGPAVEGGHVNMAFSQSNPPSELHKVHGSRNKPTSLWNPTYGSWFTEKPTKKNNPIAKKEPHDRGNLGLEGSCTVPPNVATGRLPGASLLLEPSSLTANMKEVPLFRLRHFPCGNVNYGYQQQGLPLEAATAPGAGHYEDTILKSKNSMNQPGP
EXPERIMENTAL_PARAMETERS: at 1 µM
I would appreciate it if you labelled entries Criterion met when inhibition is 9% or higher, otherwise Criterion not met.

These solved cases illustrate the format of a correct answer.
- CHEM_SMILES: "CN(C)CCOc1ccc(-c2nc(-c3ccncc3)c(-c3ccc4c(c3)CC/C4=N\\O)[nH]2)cc1"
  CAT: "Criterion not met"
- CHEM_SMILES: "CS(=O)(=O)CCNCc1ccc(-c2ccc3ncnc(Nc4ccc(OCc5ccccc5)c(C(F)(F)F)c4)c3c2)o1"
  CAT: "Criterion not met"
- CHEM_SMILES: "COc1cccc(-n2ncc3c(N/N=C/c4ccc(F)cc4)ncnc32)c1"
  CAT: "Criterion not met"
- CHEM_SMILES: "CCCN(CCS(C)(=O)=O)Cc1ccc(-c2ccc3ncnc(Nc4ccc(OCc5cccc(F)c5)c(Cl)c4)c3c2)o1"
  CAT: "Criterion not met"
- CHEM_SMILES: "Clc1ccc(-c2nn3ncccc3c2-c2ccnc(Nc3ccccc3)n2)cc1"
  CAT: "Criterion not met"
- CHEM_SMILES: "COc1cc2ncn(-c3cc(OCc4ccccc4C(F)(F)F)c(C(=O)N(C)C)s3)c2cc1OC"
  CAT: "Criterion not met"
- CHEM_SMILES: "NS(=O)(=O)c1ccc(N/N=C2\\C(=O)Nc3ccc4ncccc4c32)cc1"
  CAT: "Criterion met"
- CHEM_SMILES: "NC(=O)c1sc(-n2cnc3ccc(C(F)(F)F)cc32)cc1OCc1ccccc1Br"
  CAT: "Criterion not met"

Dear colleague, could you confirm whether "COc1ccc(-c2nn3ncccc3c2-c2ccnc(Nc3ccc4c(c3)OCCO4)n2)cc1" has inhibition at or above 9%?
Criterion met

Okay, and "CCn1c(-c2nonc2N)nc2c(C#CC(C)(C)O)ncc(OC3CCNCC3)c21" ?
Criterion not met

And the next one, "Fc1ccc(-c2nn3ccccc3c2-c2ccncc2)cc1" ?
Criterion not met

Same question for "O=S(=O)(CCNCc1ccc(-c2ccc3ncnc(Nc4ccc(OCc5cccc(F)c5)c(Cl)c4)c3c2)o1)c1ccccc1" please.
Criterion not met

====

Entries and their inhibition values follow.
TESTED_ON: Dual specificity tyrosine-phosphorylation-regulated kinase 1A (Homo sapiens)
EXPERIMENTAL_PARAMETERS: at 0.1 µM
Description: GSK_PKIS: DYRK1A mean inhibition at 0.1 uM [Nanosyn]
The response must be a number in % with no trailing unit.

Before answering, review these 10 worked examples.
- CHEM_SMILES: "COc1ccc(-c2cc(-c3c[nH]nc3-c3ccccn3)ccn2)cc1"
  inhibition / %: 2.83
- CHEM_SMILES: "COC(=O)c1sc(-n2cnc3cc(OC)c(OC)cc32)cc1OCc1ccccc1C(F)(F)F"
  inhibition / %: 1.62
- CHEM_SMILES: "CCOc1ccc2c(-c3ccnc(Nc4cccc(C(F)(F)F)c4)n3)cnn2n1"
  inhibition / %: -0.46
- CHEM_SMILES: "Cc1cccc2c1NC(=O)/C2=N\\Nc1ccc(S(N)(=O)=O)cc1"
  inhibition / %: 1.06
- CHEM_SMILES: "CCn1c(-c2nonc2N)nc2c(C#CC(C)(C)O)ncc(OC3CCNCC3)c21"
  inhibition / %: 1.61
- CHEM_SMILES: "CCN(CC)S(=O)(=O)c1ccc(OC)c(Nc2ncc(-c3ccccc3)o2)c1"
  inhibition / %: 1.08
- CHEM_SMILES: "Fc1ccc(-c2nn3ccccc3c2-c2ccncc2)cc1"
  inhibition / %: 0.99
- CHEM_SMILES: "COC(=O)Nc1nc2ccc(S(=O)(=O)c3ccc(NC(=O)Nc4cc(C(F)(F)F)ccc4F)cc3)cc2[nH]1"
  inhibition / %: 1.81
- CHEM_SMILES: "Cc1ccc(O)cc1Nc1ccnc2cc(-c3ccccn3)ccc12"
  inhibition / %: 2.56
- CHEM_SMILES: "CCN1CCC(CC(=O)Nc2n[nH]c3nnc(-c4cccc(F)c4F)cc23)CC1"
  inhibition / %: 10.4

Consider the molecule shown here: "Cc1cccc(Nc2ncc(-c3ccccc3)o2)c1" What is its recorded inhibition?
1.29

Repeat with "Fc1cccc(COc2ccc(Nc3ncnc4sc(-c5ccco5)cc34)cc2Cl)c1"
3.24

Proceed to "c1ccc(-c2nc3n(c2-c2ccc4c(c2)OCO4)CCC3)nc1"
1.52

One more molecule: "N#Cc1c(NC(=O)CN2CCOCC2)sc2c1CCCC2"
7.33

// next record "COc1cccc(-c2c[nH]c3c(N/N=C/c4ccncc4)ncnc23)c1"
16.1

Same question, "CNC(=O)c1cccc(C#Cc2cncnc2Nc2ccc(OCc3cccc(F)c3)c(Cl)c2)c1" this time
-0.33

Also "c1ccc(COc2ccc(Nc3ncnc4ccc(-c5ccco5)cc34)cc2)cc1" ?
-1.32

// next record "CCn1c(-c2nonc2N)nc2c(C#CC(C)(C)O)nc(OC[C@H](N)c3ccccc3)cc21"
1.72

Also need "O=C(O[C@H]1CN[C@H](C#Cc2cc3ncnc(Nc4ccc(Cc5ccccc5)cc4)c3s2)C1)N1CCOCC1" , thanks.
1.9

Do the same for "CCc1nn2ncccc2c1-c1ccnc(NC2CC2)n1" please
1.95

What about "COc1cc(/C=N/Nc2ncnc3[nH]ncc23)ccc1O" ?
12.5

Here is the next molecule: "O=C(Nc1n[nH]c2cc(-c3ccc(F)cc3)ccc12)C1CC1"
3.64

====

TESTED_ON: NT-3 growth factor receptor (Homo sapiens) (UniProt Q16288)
Sequence (Q16288 32-839 limits assumed): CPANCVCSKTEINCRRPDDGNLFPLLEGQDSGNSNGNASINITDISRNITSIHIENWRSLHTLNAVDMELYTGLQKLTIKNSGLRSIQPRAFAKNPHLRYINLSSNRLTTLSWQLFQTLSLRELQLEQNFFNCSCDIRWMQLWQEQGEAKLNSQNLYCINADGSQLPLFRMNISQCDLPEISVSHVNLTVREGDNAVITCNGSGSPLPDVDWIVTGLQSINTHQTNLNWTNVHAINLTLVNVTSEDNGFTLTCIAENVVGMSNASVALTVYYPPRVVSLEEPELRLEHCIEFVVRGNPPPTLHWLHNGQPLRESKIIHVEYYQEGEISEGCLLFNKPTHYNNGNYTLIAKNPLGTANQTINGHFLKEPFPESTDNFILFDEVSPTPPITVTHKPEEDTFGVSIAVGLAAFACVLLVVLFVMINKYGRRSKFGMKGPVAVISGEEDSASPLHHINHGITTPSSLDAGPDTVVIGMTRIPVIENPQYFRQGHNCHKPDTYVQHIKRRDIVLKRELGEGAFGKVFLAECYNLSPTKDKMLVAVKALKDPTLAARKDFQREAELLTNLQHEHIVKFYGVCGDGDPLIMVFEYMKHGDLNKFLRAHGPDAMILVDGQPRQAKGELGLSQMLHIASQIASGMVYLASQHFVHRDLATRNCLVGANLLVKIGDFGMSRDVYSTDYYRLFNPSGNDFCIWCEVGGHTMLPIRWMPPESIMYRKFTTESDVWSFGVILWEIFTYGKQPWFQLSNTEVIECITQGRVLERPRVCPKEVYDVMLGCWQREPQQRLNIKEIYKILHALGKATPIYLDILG
EXPERIMENTAL_PARAMETERS: at 0.1 µM
Listed below: inhibition values for each entry.

Guide cases for inhibition, answers given:
- CHEM_SMILES: "CC(=O)Nc1cccc(C#Cc2cncnc2Nc2ccc(OCc3cccc(F)c3)c(Cl)c2)c1"
  inhibition: "-1.1%"
- CHEM_SMILES: "Cc1ccc2c(-c3ccnc(Nc4ccccc4)n3)c(-c3ccc(F)cc3)nn2n1"
  inhibition: "4.3%"
- CHEM_SMILES: "COC(=O)c1sc(-n2cnc3cc(OC)c(OC)cc32)cc1OCc1ccccc1C(F)(F)F"
  inhibition: "3.71%"
- CHEM_SMILES: "CNC(=O)c1cncc(/C=C/c2ccccc2Cl)c1"
  inhibition: "-1.83%"

--- query ---
Query the reported inhibition for NT-3 growth factor receptor (Homo sapiens) (UniProt Q16288); item: "CCCN(CCS(C)(=O)=O)Cc1ccc(-c2ccc3ncnc(Nc4ccc(OCc5cccc(F)c5)c(Cl)c4)c3c2)o1"
2.2%

====

TESTED_ON: Macrophage colony-stimulating factor 1 receptor (Homo sapiens) (UniProt P07333)
EXPERIMENTAL_PARAMETERS: at 0.1 µM
Form field: inhibition (one value per entry).
Give the value, in units of %, as a plain number.

Query the reported inhibition for Macrophage colony-stimulating factor 1 receptor (Homo sapiens) (UniProt P07333); item: "Cc1cccc2c1NC(=O)/C2=N\Nc1ccc(S(N)(=O)=O)cc1"
2.22

====

Documented inhibition across a set of compounds
TESTED_ON: Phosphorylase b kinase gamma catalytic chain, skeletal muscle/heart isoform (Homo sapiens) (UniProt Q16816)
Sequence (Q16816 whole entry, looked up, canonical isoform): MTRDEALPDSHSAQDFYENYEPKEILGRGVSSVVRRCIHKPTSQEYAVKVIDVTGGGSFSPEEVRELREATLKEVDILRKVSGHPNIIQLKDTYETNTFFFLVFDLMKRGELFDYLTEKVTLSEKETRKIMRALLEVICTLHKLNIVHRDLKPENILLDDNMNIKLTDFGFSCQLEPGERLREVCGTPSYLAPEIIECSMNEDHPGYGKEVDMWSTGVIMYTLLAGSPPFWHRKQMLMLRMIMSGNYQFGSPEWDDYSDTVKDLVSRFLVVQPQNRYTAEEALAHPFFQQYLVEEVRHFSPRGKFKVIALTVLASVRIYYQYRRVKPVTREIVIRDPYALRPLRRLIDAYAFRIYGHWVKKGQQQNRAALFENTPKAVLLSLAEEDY
EXPERIMENTAL_PARAMETERS: at 0.1 µM
Provide only the numeric value, understood in %.

Look over these answered cases.
- CHEM_SMILES: "FC(F)(F)c1cccc(-c2nn3ncccc3c2-c2ccnc(Nc3ccc4c(c3)OCCO4)n2)c1"
  inhibition (%): -0.01
- CHEM_SMILES: "COc1ccc(-c2cc(-c3c[nH]nc3-c3ccccn3)ccn2)cc1"
  inhibition (%): 2.63
- CHEM_SMILES: "COc1ccc(-c2nn3ncccc3c2-c2ccnc(Nc3ccc4c(c3)OCCO4)n2)cc1"
  inhibition (%): 2.6
- CHEM_SMILES: "COc1cc(/C=N/Nc2ncnc3[nH]ncc23)ccc1O"
  inhibition (%): 4.58

# context switch: different compound, same inhibition
inhibition for "COc1cccc(-n2ncc3c(N/N=C/c4ccc(F)cc4)ncnc32)c1" ?
2.66

====

TESTED_ON: Ribosomal protein S6 kinase alpha-2 (Homo sapiens)
EXPERIMENTAL_PARAMETERS: at 0.1 µM
READOUT_TYPE: inhibition (%)
Give your result in % as a bare value.

Answered cases to consult:
- MOLECULE: "CC(=O)Nc1cccc(C#Cc2cncnc2Nc2ccc(OCc3cccc(F)c3)c(Cl)c2)c1"
  TESTED_ON: "Ribosomal protein S6 kinase alpha-2 (Homo sapiens)"
  UOM: "%"
  inhibition: 1.46
- MOLECULE: "CNC(=O)c1cncc(/C=C/c2ccccc2Cl)c1"
  TESTED_ON: "Ribosomal protein S6 kinase alpha-2 (Homo sapiens)"
  UOM: "%"
  inhibition: -0.36
- MOLECULE: "CNC(=O)c1cc(-c2ccc(F)cc2)cc(-c2ccc(S(=O)(=O)N3CCCC3)cc2)c1N"
  TESTED_ON: "Ribosomal protein S6 kinase alpha-2 (Homo sapiens)"
  UOM: "%"
  inhibition: 2.73
- MOLECULE: "Fc1cccc(COc2ccc(Nc3ncnc4sc(-c5ccco5)cc34)cc2Cl)c1"
  TESTED_ON: "Ribosomal protein S6 kinase alpha-2 (Homo sapiens)"
  UOM: "%"
  inhibition: 2.51
- MOLECULE: "CCn1c(-c2nonc2N)nc2c(C#CC(C)(C)O)ncc(OC3CCNCC3)c21"
  TESTED_ON: "Ribosomal protein S6 kinase alpha-2 (Homo sapiens)"
  UOM: "%"
  inhibition: 2.34

Endpoint output: inhibition of CC1=C(C(=O)Nc2cc(Cl)c3[nH]ncc3c2)C(c2ccc(C(F)(F)F)cc2)CC(=O)N1 (stereo not given) . Value?
13.1
